tested on: SK-MEL-28 melanoma; test: NCI tumour cell line growth inhibition, 48 h
Overview of reported TGI across a group of molecules:
METRIC NAME: TGI

>>> recorded_measurement("C=C(CC)C(=O)c1ccc(OCC(=O)O)c(Cl)c1Cl")
"33.6 µM"
>>> recorded_measurement("COc1cc(C2C=C(C)N=C3SC=C(C)N32)cc(OC)c1OC (stereo not given)")
"2.01 µM"
>>> recorded_measurement("O=C1CC[C@@H](S(=O)(=O)c2ccccc2)[C@H](/C=C/c2ccccc2)O1")
"> 100 µM"
>>> recorded_measurement("NC(=S)N/N=C/C(O[C@@H](/C=N/NC(N)=S)CO)n1cnc2c(N)ncnc21 (stereo not given in full)")
"> 100 µM"
>>> recorded_measurement("O=C(Nc1ccc(C(F)(F)F)cc1[N+](=O)[O-])C(=O)Nn1c(=S)[nH]c2ccccc2c1=O")
"> 100 µM"
>>> recorded_measurement("O=C(CC(O)(C(F)(F)F)C(F)(F)F)c1cccs1")
"> 10 µM"
>>> recorded_measurement("COc1ccc(NC(=O)CSc2nc(C)nc3c2sc(=S)n3-c2ccccc2)cc1")
"> 10 µM"
>>> recorded_measurement("CC1(C)COC(c2cccc(C(O)c3ccc(Cl)cc3)c2)=N1 (stereo not given)")
"> 100 µM"
>>> recorded_measurement("CCCCCCCCCCCCCCCC(=O)OCC1OC(OCCCC)[C@H](O[C@@H]2OC(C)C(OC(=O)CCC)C(O)C2O)C(O)C1O (stereo not given in full)")
"32.1 µM"
>>> recorded_measurement("COC(=O)c1ccccc1C1CN=NC12Cc1cc3c(cc1C2=O)CCC3 (stereo not given)")
"> 100 µM"
